Test system: Ngn3+ progenitor-containing E-cad+ cells
procedureSummary: Insulin-producing (MIPGFP+) cell differentiation from sorted E-cad+ cells of E15.5 MIPGFP mouse pancreas
Type: cell-based
testConditions: co-culture with Nic 10 mM (FIG. 1g, 5, 13, 15)
Method: Approximately 7,500 E15.5 [at which the number of Ngn3^+ progenitors is peaked] mouse fetuses from both MIPGFP and Ngn3-GPF/RIP-DsRed lines were used for enrichment/purification of Ngn3^+ progenitors. Mouse pancreases were dissected under a stereoscope (Olympus, Tokyo, Japan). […] The purity of sorted cells was determined by post-sort analysis. […] The number of β-like cells was directly quantified under a fluorescence microscope. […]
measurementType: effect on Nic-induced differentiation

O=C1Nc2cc(Br)ccc2/C1=C1/Nc2ccccc2/C1=N\O :: suppressed or abolished
O=c1c(O)c(-c2ccc(O)c(O)c2)oc2cc(O)cc(O)c12 :: suppressed or abolished
